Data origin: ChEMBL document CHEMBL1141606

assay: Drug level in po dosed rat plasma; type: ADME, organism-based; design: route oral
reported_metric: Cmax (ng/mL)

| smiles_str | result |
| --- | --- |
| c1cnc2[nH]c(C[C@H]3CCCN3)cc2c1 | 120 |

----------
test: Drug level in po dosed rat brain; format: ADME, organism-based; design: route oral
reported_metric: Cmax (ng/g)

| smiles_str | result |
| --- | --- |
| c1cnc2[nH]c(C[C@H]3CCCN3)cc2c1 | 280 |

----------
assay: Oral bioavailability in rat; type: ADME, organism-based; conditions: in vivo

| smiles_str | scale_unit | bioavailability |
| --- | --- | --- |
| c1cnc2[nH]c(C[C@H]3CCCN3)cc2c1 | % | 11.3 |
